Origin of the recorded values: ChEMBL document CHEMBL1800058

Test system: Bel-7402
Test: Cytotoxicity against human Bel7402 cells at 10^-6 M after 96 hrs by MTT assay
Assay type: functional, cell-based
Active and inactive are the calls of the source. The rule behind the calls is not given here.
reported.endpoint: Activity

>  <smiles.data>
CC(=O)O[C@@H]1[C@H]2[C@@H](O)/C(C)=C\C[C@H]3[C@H](/C=C(\C)C(=O)[C@@]2(OC(=O)c2ccccc2)C[C@@H]1C)C3(C)C

>  <experimental.target>
Bel-7402

>  <reported.endpoint>
Activity

>  <assay.value>
inactive

$$$$
>  <smiles.data>
C/C1=C/C[C@H]2[C@H](/C=C(\C)C(=O)[C@@]3(O)C[C@H](C)[C@H](O)[C@@H]3[C@H]1OC(=O)/C=C/c1ccccc1)C2(C)C

>  <experimental.target>
Bel-7402

>  <reported.endpoint>
Activity

>  <assay.value>
inactive

$$$$
>  <smiles.data>
C/C1=C\[C@H]2[C@@H](O)[C@@H](C)C[C@]2(OC(=O)c2ccccc2)C(=O)/C(C)=C/[C@H]2[C@H](CC1)C2(C)C

>  <experimental.target>
Bel-7402

>  <reported.endpoint>
Activity

>  <assay.value>
inactive

$$$$
